Each entry below carries its recorded pIC50.
- MEASURED_ON: Peroxisome proliferator-activated receptor delta (Homo sapiens, UniProt Q03181)
- Sequence (Q03181 whole entry): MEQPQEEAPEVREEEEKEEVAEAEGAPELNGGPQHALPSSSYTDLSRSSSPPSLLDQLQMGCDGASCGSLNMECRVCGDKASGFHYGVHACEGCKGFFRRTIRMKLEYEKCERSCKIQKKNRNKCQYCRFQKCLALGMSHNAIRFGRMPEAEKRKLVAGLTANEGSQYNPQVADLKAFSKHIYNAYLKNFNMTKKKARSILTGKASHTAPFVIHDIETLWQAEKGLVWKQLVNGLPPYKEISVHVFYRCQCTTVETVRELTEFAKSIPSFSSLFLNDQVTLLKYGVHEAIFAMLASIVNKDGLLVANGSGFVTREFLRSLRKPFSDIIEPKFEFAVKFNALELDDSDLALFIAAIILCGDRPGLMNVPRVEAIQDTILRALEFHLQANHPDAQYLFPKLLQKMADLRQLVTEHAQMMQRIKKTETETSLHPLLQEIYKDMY
Just so you know, pIC50 here is -log10 of the concentration in molar units; reply with that number alone.

Take a look at these entries with their results.
[
  {
    "COMPOUND": "CO[C@@H](Cc1ccc(OCCCOc2ccc(-c3ccccc3)cc2)cc1)C(=O)O",
    "pIC50": 5.86
  },
  {
    "COMPOUND": "COc1cc(C[C@H](OC)C(=O)O)ccc1OCCCOc1ccc(Oc2ccccc2)cc1",
    "pIC50": 5.12
  },
  {
    "COMPOUND": "CCO[C@@H](Cc1ccc(OCCCOc2ccc(Oc3ccccc3)cc2)cc1)C(=O)O",
    "pIC50": 5.80
  }
]

Query: pIC50; subject: `CO[C@@H](Cc1ccc(OCCCOc2ccc(C(=O)c3ccccc3)cc2)c(Cl)c1)C(=O)O`
5.82

Would you mind doing `CO[C@@H](Cc1ccc(C#CCCOc2ccc(Oc3ccccc3)cc2)cc1)C(=O)O` as well?
5.40

CO[C@@H](Cc1ccc(OCCCOc2ccc(Oc3ccccc3)cc2)cc1)C(=O)O [NAVEGLITAZAR] , same question.
5.72

Please do the same for `CO[C@@H](Cc1ccc(OCCCOc2ccc(C(=O)c3ccccc3)cc2)cc1)C(=O)O` as well.
5.63

Also need `CO[C@@H](Cc1ccc(C#CCCCOc2ccc(Oc3ccccc3)cc2)cc1)C(=O)O` , thanks.
5.38

---

Consider the following EC50 values measured on Peroxisome proliferator-activated receptor alpha (Homo sapiens, UniProt Q07869).
Please reply with the bare figure in nM and do not write the unit itself.

Record excerpt, results attached:
[
  {
    "SUBSTANCE_SMILES": "CO[C@@H](Cc1ccc(OCCCOc2ccc(-c3ccccc3)cc2)cc1)C(=O)O",
    "EC50 (nM)": 1100
  },
  {
    "SUBSTANCE_SMILES": "CO[C@@H](Cc1ccc(OCCCOc2ccc(C(=O)c3ccccc3)cc2)cc1)C(=O)O",
    "EC50 (nM)": 2870
  },
  {
    "SUBSTANCE_SMILES": "CO[C@@H](Cc1ccc(C#CCCCOc2ccc(Oc3ccccc3)cc2)cc1)C(=O)O",
    "EC50 (nM)": 2620
  }
]

Now examine the next entry.
What value of measured EC50 is listed for `COc1cc(C[C@H](OC)C(=O)O)ccc1OCCCOc1ccc(Oc2ccccc2)cc1` ?
2150

---

Peroxisome proliferator-activated receptor alpha (Homo sapiens, UniProt Q07869) EC50 data
# number only, unit µM dropped from output

Below, 3 compounds whose answers are already recorded.
[
  {
    "SUBSTANCE_SMILES": "CCO[C@@H](Cc1ccc(OCCCOc2ccc(Oc3ccccc3)cc2)cc1)C(=O)O",
    "EC50 (µM)": 2.75
  },
  {
    "SUBSTANCE_SMILES": "CO[C@@H](Cc1ccc(C#CCCOc2ccc(Oc3ccccc3)cc2)cc1)C(=O)O",
    "EC50 (µM)": 1.88
  },
  {
    "SUBSTANCE_SMILES": "CO[C@@H](Cc1ccc(OCCCOc2ccc(Oc3ccccc3)cc2)cc1)C(=O)O",
    "EC50 (µM)": 2.82
  }
]

Fill in: EC50 of `CO[C@@H](Cc1ccc(OCCCOc2ccc(C(=O)c3ccccc3)cc2)c(Cl)c1)C(=O)O` is ___
2.71

---

- MEASURED_ON: Peroxisome proliferator-activated receptor alpha (Homo sapiens, UniProt Q07869)
- Sequence (Q07869 whole entry): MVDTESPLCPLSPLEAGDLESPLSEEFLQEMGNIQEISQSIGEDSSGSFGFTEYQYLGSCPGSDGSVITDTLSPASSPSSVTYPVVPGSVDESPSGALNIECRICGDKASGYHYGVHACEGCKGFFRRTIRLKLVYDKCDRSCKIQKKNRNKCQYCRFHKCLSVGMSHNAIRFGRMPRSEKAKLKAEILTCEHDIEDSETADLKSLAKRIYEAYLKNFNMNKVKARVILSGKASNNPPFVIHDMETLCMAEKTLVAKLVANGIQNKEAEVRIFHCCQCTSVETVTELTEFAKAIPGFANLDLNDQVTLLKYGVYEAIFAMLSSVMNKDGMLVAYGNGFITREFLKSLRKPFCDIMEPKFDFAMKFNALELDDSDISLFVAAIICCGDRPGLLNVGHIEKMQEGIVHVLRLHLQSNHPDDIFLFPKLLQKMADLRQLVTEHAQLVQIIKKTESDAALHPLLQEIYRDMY
pIC50: −log10 of the molar value.
Hi, to clarify the labels: 1 (yes) covers pIC50 from 6 upward, 0 (no) covers anything below 6.

Illustrative cases are given below, each with its answer.
[
  {
    "COMPOUND": "CO[C@@H](Cc1ccc(OCCCOc2ccc(-c3ccccc3)cc2)cc1)C(=O)O",
    "CAT": "1 (yes)"
  },
  {
    "COMPOUND": "CO[C@@H](Cc1ccc(OCCCOc2ccc(Oc3ccccc3)cc2)cc1)C(=O)O [NAVEGLITAZAR]",
    "CAT": "0 (no)"
  },
  {
    "COMPOUND": "CCO[C@@H](Cc1ccc(OCCCOc2ccc(Oc3ccccc3)cc2)cc1)C(=O)O",
    "CAT": "0 (no)"
  },
  {
    "COMPOUND": "CO[C@@H](Cc1ccc(OCCCOc2ccc(C(=O)c3ccccc3)cc2)cc1)C(=O)O",
    "CAT": "1 (yes)"
  },
  {
    "COMPOUND": "CO[C@@H](Cc1ccc(OCCCOc2ccc(C(=O)c3ccccc3)cc2)c(Cl)c1)C(=O)O",
    "CAT": "1 (yes)"
  }
]

Please examine the following record next.
Could you please find out whether CC(C)(Oc1ccc(C(=O)c2ccc(Cl)cc2)cc1)C(=O)O [FENOFIBRIC ACID] has pIC50 that meets 6 or exceeds it?
0 (no)

---

Below are pIC50 values measured for Peroxisome proliferator-activated receptor alpha (Homo sapiens).
Scale note: pIC50 = -log10(concentration in M).

# input compound: `COc1cc(C[C@H](OC)C(=O)O)ccc1OCCCOc1ccc(Oc2ccccc2)cc1` ; wanted: its pIC50
5.87

Moving on to `CO[C@@H](Cc1ccc(C#CCCOc2ccc(Oc3ccccc3)cc2)cc1)C(=O)O`
5.94

Query `CO[C@@H](Cc1ccc(C#CCCCOc2ccc(Oc3ccccc3)cc2)cc1)C(=O)O` next
6.11
